- System: Escherichia coli IAI1
- assay.name: fold change of Putrescine concentration vs plate DMSO controls (fold change (ratio)); higher = more amine produced, active = hit call of the paper (significant change in both replicates, either direction)
- condition.description: incubation time: 27 h, anaerobic, 37 °C
Where a name gives a salt, the structure may show the parent alone.
measure.name: fold change of Putrescine concentration
Answer with the value's number alone.

>  <compound>
CN(C)CCOC(c1ccc(Cl)cc1)c1ccccn1 (stereo not drawn) [Carbinoxamine maleate salt] (20 µM)

>  <fold change of Putrescine concentration>
0.966

$$$$

Name the reported fold change of Putrescine concentration value associated with the compound COc1cc(N)c(Cl)cc1C(=O)NC1CCN(Cc2ccccc2)CC1 [Clebopride maleate] (20 µM)
0.926

Name the reported fold change of Putrescine concentration value associated with the compound CCCNC(C)(C)COC(=O)c1ccccc1 [Meprylcaine hydrochloride] (20 µM)
1.01

Name the reported fold change of Putrescine concentration value associated with the compound Cc1ccccc1OCC(O)CO (stereo not drawn) [Mephenesin] (20 µM)
1.13

Name the reported fold change of Putrescine concentration value associated with the compound CC[N+](CC)(CC(=O)Nc1c(C)cccc1C)Cc1ccccc1 [Denatonium benzoate] (20 µM)
1

Name the reported fold change of Putrescine concentration value associated with the compound CN(Cc1ccc(C(C)(C)C)cc1)Cc1cccc2ccccc12 [Butenafine hydrochloride] (20 µM)
1.05

Name the reported fold change of Putrescine concentration value associated with the compound COc1ccc2c(c1)c(CC(=O)OCC(=O)O)c(C)n2C(=O)c1ccc(Cl)cc1 [Acemetacin] (20 µM)
1.06

Name the reported fold change of Putrescine concentration value associated with the compound CCCCCOC(=O)Nc1nc(=O)n([C@@H]2O[C@H](C)[C@@H](O)[C@H]2O)cc1F [Capecitabine] (20 µM)
0.993

// data source = the supplement of paper PMC12494721
